Origin of the recorded values: patent US20060121489

Target: NF-kB p65 (RelA) homodimer (UniProt Q04206 Q04206:1-551)
Sequence (Q04206 whole entry, one chain of several): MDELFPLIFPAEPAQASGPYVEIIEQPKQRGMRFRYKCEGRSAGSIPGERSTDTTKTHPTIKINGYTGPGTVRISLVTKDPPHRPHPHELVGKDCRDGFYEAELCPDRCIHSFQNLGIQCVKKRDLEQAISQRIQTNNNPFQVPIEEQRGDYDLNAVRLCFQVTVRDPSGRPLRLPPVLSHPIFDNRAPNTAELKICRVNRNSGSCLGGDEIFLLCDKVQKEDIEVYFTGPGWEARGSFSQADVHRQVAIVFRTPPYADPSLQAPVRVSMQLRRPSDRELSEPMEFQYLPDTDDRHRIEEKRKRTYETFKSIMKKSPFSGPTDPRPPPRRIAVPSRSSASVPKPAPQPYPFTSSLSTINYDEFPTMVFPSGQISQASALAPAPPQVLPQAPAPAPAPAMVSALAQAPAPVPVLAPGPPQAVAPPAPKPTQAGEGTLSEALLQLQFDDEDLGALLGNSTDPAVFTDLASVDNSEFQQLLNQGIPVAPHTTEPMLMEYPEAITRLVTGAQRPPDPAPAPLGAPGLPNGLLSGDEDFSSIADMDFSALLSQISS
Assay: EMSA; p65 homodimer
Conditions: chain copies: 2 (homodimer, stated)
Readout: Kd

input: Data request, read-out Kd, for XBY-6 (dsDNA, 6 phosphorodithioate (S2) linkages: 5'-…2TS2CCAC-3' / 3'-GGS2TCCS2TCS2TAAGGS2TG-5') DNA 1: CCAGGAGATTCCAC DNA 2: GTGGAATCTCCTGG
output: 1.4 nM
